- system_tested: UniProt P78417
- Sequence (P78417 whole entry): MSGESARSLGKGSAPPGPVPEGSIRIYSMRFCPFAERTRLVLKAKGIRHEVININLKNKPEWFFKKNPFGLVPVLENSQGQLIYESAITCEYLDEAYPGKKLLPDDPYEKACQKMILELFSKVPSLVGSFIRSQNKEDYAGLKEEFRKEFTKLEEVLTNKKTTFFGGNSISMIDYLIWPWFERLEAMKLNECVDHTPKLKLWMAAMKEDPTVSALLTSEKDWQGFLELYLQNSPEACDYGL
- protocol_details: GSTO1 substrate assay (reduction of 4-NPG)
- particulars: read-out: GSTO substrate assay IC50; cluster screening tables
readout_kind: IC50 (nM)

Consider the reported IC50 for these compounds:
>>> data_value("Cc1cccc(NC(=S)NC(NC(=O)CCl)C(Cl)(Cl)Cl)c1 (stereo not shown)")
1650
>>> data_value("O=C(CCl)Nc1ccc(S(=O)(=O)C(F)F)cc1")
148
>>> data_value("CN(c1ccccc1)S(=O)(=O)c1cccc(NC(=O)CCl)c1")
64

[1] NC(=O)C1CN(C(=O)CCl)c2ccccc2O1 (stereo not shown)
[2] N#CCCN(C(=O)CCl)c1cccc(C(F)(F)F)c1
Task: Sort 1 and 2 by IC50 descending and give the first. Please identify the chosen entry by its label.
Result: 1

[I] O=C(CCl)Nc1cc(S(=O)(=O)N(C(=O)CCl)c2cccc(Cl)c2)ccc1Cl
[II] O=C(CCl)Nc1ccc(Cl)cc1[N+](=O)[O-]
Task: Sort I and II by IC50 descending and give the first. Please identify the chosen entry by its label.
Result: II
(II: 1220 nM, I: 30 nM)
